- Measurement protocol: Quantitative High-Throughput drug screen in 47 multiple myeloma cell lines against the NCATS MIPE library collection: KMS26_JCRB cell viability assay (AID 1918975); also: nearly all actives have a fitted effect of over 45% in size; also: potency is read from the fitted curve at half-maximal effect
- Condition parameters: KMS26 myeloma cells viability, CellTiter-Glo ATP, 48 h; series mostly up to 45.8 µM
Results filed as inconclusive are left out. Calls of active or inactive are those of the source. Calls follow the shape of the dose curve; as a rule, active = well fitted cell-killing curve with a large enough effect; inconclusive = small, poorly fitted or top-dose-only effect, or effect the other way; inactive = no such curve, though single readings can be large or run the other way.
Recorded endpoint: Potency

- Cc1cc([C@@H](C)Nc2ccccc2C(=O)O)c2nc(N3CCOCC3)cc(=O)n2c1: 27 µM (active)
- C1COC(NC(C2CC2)C2CC2)=N1: inactive
- Cc1[nH]c(=O)c(C#N)cc1-c1ccc2nccn2c1: inactive
- CC1(C)SCCN(S(=O)(=O)c2ccc(OCC#CCO)cc2)[C@@H]1C(=O)NO: 2.96 µM (active)
- Oc1ccc(C2CNCCc3c2cc(O)c(O)c3Cl)cc1 (stereo not given): 1.32 µM (active)
- CC(c1cc2ccccc2s1)N(O)C(N)=O (stereo not given): inactive
- C[C@@H]1CN(Cc2ccc(F)cc2)[C@@H](C)CN1C(=O)c1cc2c(C(=O)C(=O)N(C)C)cn(C)c2cc1Cl: 18.7 µM (active)
- COc1cc2nccc(Oc3ccc(NC(=O)NC4CC4)c(Cl)c3)c2cc1C(N)=O: 23.5 µM (active)
- Nc1nc2[nH]cc(CCc3ccc(C(=O)N[C@@H](CCC(=O)O)C(=O)O)cc3)c2c(=O)[nH]1: inactive

Kindly consider the entry below.
molecule CCOc1ccn(-c2ccc(F)cc2)c(=O)c1C(=O)Nc1ccc(Oc2ccnc(N)c2Cl)c(F)c1 , Potency observed: inactive

---

- Measurement protocol: Quantitative High-Throughput drug screen in 47 multiple myeloma cell lines against the NCATS MIPE library collection: KMS12BM_JCRB cell viability assay (AID 1918971); also: nearly all actives have a fitted effect of over 35% in size; also: potency is read from the fitted curve at half-maximal effect
- Condition parameters: KMS12BM myeloma viability, CellTiter-Glo ATP, 48 h; series mostly up to 45.8 µM
- Excerpt: PI: Beverly A. Mock Ph.D. Laboratory of Cancer Biology and Genetics, Center for Cancer Research, National Cancer Institute, National Institute of Health, Bethesda, Maryland […] 5; Detector; 425V; Luminescence; Viewlux PerkinElmer. […] 1. […] Briefly, the corresponding myeloma cell lines were screened in 1,536-well plates with 500 cells, 5-uL per well for inhibition of cell viability (assessed by measuring ATP levels with CellTiterGlo). […]
Results filed as inconclusive are left out. Active and inactive are the calls of the source. Calls come from the whole dose curve; as a rule, active = well fitted cell-killing curve with a large enough effect; inconclusive = small, poorly fitted or top-dose-only effect, or effect the other way; inactive = no such curve, though single readings can be large or run the other way.
Recorded endpoint: Potency

Consider the following illustrative entries.
• COc1ccc(CC2=NN3C([C@@H](CCc4ccccc4)[C@@H](C)O)=NC(C)C3C(=O)N2)cc1OC (stereo partly drawn) = inactive
• O=C(Nc1cccnc1)N1CCC(Cc2cccc(Oc3ccc(C(F)(F)F)cn3)c2)CC1 = 13.2 µM (active)
• NNCCc1ccccc1 = 14.8 µM (active)
• CC(C)(N)C(=O)N[C@H](COCc1ccccc1)C(=O)N1CCC2(CC1)CN(S(C)(=O)=O)c1ccccc12 = 14.8 µM (active)
• COc1ccc(-c2oc3cc(OC)ccc3c2C(=O)c2ccc(C#N)cc2)cc1 = inactive
• c1ccc([C@H]2CN3CCSC3=N2)cc1 = inactive
• Cc1c(C)c2c(c(C)c1O)CCC(C)(COc1ccc(CC3SC(=O)NC3=O)cc1)O2 (stereo not drawn) = inactive
• CC[C@H](Nc1ncnc2nc[nH]c12)c1nc2cccc(F)c2c(=O)n1-c1ccccc1 = 18.7 µM (active)
• CN(C(=O)c1ccc(F)cc1C(F)(F)F)C1CCN(c2nnc(-c3ccnn3C)c3ccccc23)CC1 = inactive
• CCC(=O)N[C@H]1CC[C@H](C(=O)N(C)c2ccc(-c3nc4ccccc4o3)cc2)C1 = inactive

molecule CCCS(=O)(=O)Nc1ccc(F)c(C(=O)c2c[nH]c3ncc(-c4ccc(Cl)cc4)cc23)c1F , Potency observed: 20.9 µM (active)

molecule Cc1c(CN2CCN(C(=O)C(C)C)CC2)sc2c(N3CCOCC3)nc(-c3cnc(N)nc3)nc12 , Potency observed: 0.0296 µM (active)

molecule COc1cc2nccc(Oc3ccc(NC(=O)NC4CC4)c(Cl)c3)c2cc1C(N)=O , Potency observed: 5.9 µM (active)

---

- Measurement protocol: Primary qHTS for inhibitors of nuclear receptor binding SET domain protein 2 (NSD2) in an isogenic RCH-ACV NSD2 p.E1099K mutant (9B) (AID 1645876); also: nearly all actives have a fitted effect of over 70% in size
- Condition parameters: RCH-ACV (leukaemia line) NSD2 E1099K (9B) viability, CellTiter-Glo, 72 h; series mostly up to 44.9 µM
Results filed as inconclusive are left out. Calls of active or inactive are those of the source. The call rests on the fitted dose curve; in most records, active means well fitted inhibition curve with a large enough effect; inconclusive means small, poorly fitted or top-dose-only effect; inactive means flat fitted curve, though single readings scatter.
Bench note: report the call from active, inactive

* CCC(C)(C)C(=O)O[C@H]1C[C@@H](C)C=C2C=C[C@H](C)[C@H](CC[C@@H]3C[C@@H](O)CC(=O)O3)[C@H]21 | active
* C[C@H](NC(=O)Cc1cc(F)cc(F)c1)C(=O)N[C@@H]1C(=O)N(C)c2ccccc2-c2ccccc21 | inactive
* O=C(C1CC1)N1CC[C@@H](Cn2c(-c3ccc(-c4ccc5occc5c4)cc3)nc3cnccc32)C1 | active

# evaluate next
# input Given Cc1n[nH]c(C)c1Cc1sc2c(c1C(=O)N1C[C@H](O)CO1)c(=O)n(C)c(=O)n2CC(C)C , state the outcome it received in this test.
# output inactive

---

- Measurement protocol: qHTS of pediatric cancer cell lines to identify multiple opportunities for drug repurposing: Primary screen for control Hh wild type fibroblast cells (AID 1347106); also: nearly all actives have a fitted effect of over 55% in size
- Condition parameters: Hh wild-type fibroblast viability, CellTiter-Glo luminescence, 48 h; series mostly up to 46 µM
Records with an inconclusive call do not appear. Calls of active or inactive are those of the source. Calls follow the shape of the dose curve; as a rule, active = well fitted cell-killing curve with a large enough effect; inconclusive = small, poorly fitted or top-dose-only effect; inactive = flat fitted curve, though single readings scatter.
Bench note: report the call from active, inactive

Would you please look over these solved cases?
- O=C1CCCC2=C1C(c1[nH]ncc1Cl)N=C(Nc1nc3ccccc3o1)N2 (configuration not stated): inactive
- COc1cc(F)c(F)c(Nc2ccc(I)cc2F)c1NS(=O)(=O)C1(C[C@H](O)CO)CC1: inactive
- NCCc1ccc(O)c(O)c1: inactive
- Cc1csc(NC(=O)c2sc3nc4c(c(C(F)(F)F)c3c2N)CCC4)n1: active
- CCn1c(-c2nonc2N)nc2cnc(Oc3cccc(NC(=O)c4ccc(OCCN5CCOCC5)cc4)c3)cc21: inactive

# input Given COc1nc(-c2ccc3c(c2)OCO3)n(-c2ccc(NC(=O)CSc3ccccc3)cc2)n1 , state the outcome it received in this test.
# output inactive

# input Given CCOc1ccc(Cc2cc([C@@H]3O[C@H](CO)[C@@H](O)[C@H](O)[C@@H]3O)ccc2Cl)cc1 , state the outcome it received in this test.
# output inactive

---

- Measurement protocol: High-throughput drug toxicity screening in the BPDCN cell line Cal-1 (AID 1224825);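 also: cells exposed to compounds for 48 h; 100% = DMSO and 0% = bortezomib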
- Condition parameters: Cal-1 BPDCN cell viability, qHTS; at 45.8 µM (top of the series) unless noted
- From the text: Blastic plasmacytoid dendritic cell neoplasm (BPDCN) is a rare, aggressive and largely incurable hematologic malignancy originating from plasmacytoid dendritic cells (pDCs). Although an initial response to chemotherapy is common, BPDCN prognosis is extremely poor and most patients relapse with drug-resistant disease leading to a median overall survival of ~1 year after diagnosis. […]
Recorded endpoint: viability (% of control) (%)
Quick reminder: number only, in %, skip the unit.

Consider the following illustrative entries.
- NC(=O)C1CCCc2c1[nH]c1ccc(Cl)cc21 (stereo not drawn): 67.2
- O=c1ncn2nc(Sc3ccc(F)cc3F)ccc2c1-c1c(Cl)cccc1Cl: 45.3
- CCC(C)N(C)C(=O)c1cc2ccccc2c(-c2ccccc2Cl)n1 (stereo not drawn): 94.3
- Cc1cc(C=c2sc3nc4ccccc4n3c2=O)c(C)n1-c1ccccc1: 103
- CCOC(=O)C1=C[C@]2(CC)CCCN3CCc4c(n1c1ccccc41)[C@@H]32: 2.19
- NC(=O)c1ccc(-c2nc(-c3ccc4c(c3)OCCO4)c(-c3ccccn3)[nH]2)cc1: 102
- CS(=O)(=O)Oc1ccc2c(NC(N)=O)c(C(=O)c3ccc(Cl)cc3Cl)oc2c1: 13.2
- Cc1cnc(NC(=O)C2=C(O)c3ccccc3S(=O)(=O)N2C)s1: 96.3

compound NC(=O)c1ccc(I)c([N+](=O)[O-])c1 , viability (% of control) observed: 40.1

compound CCn1c(-c2nonc2N)nc2c(C#CC(C)(C)O)ncc(OC[C@H]3CCCNC3)c21 , viability (% of control) observed: 8.62

compound O=NN(CCCl)C(=O)NCCCl , viability (% of control) observed: 103

compound OC(CCN1CCCCC1)(c1ccccc1)C1CC2C=CC1C2 (stereo not drawn) , viability (% of control) observed: 107

compound Cc1n[nH]c(C)c1Cc1sc2c(c1C(=O)N1C[C@H](O)CO1)c(=O)n(C)c(=O)n2CC(C)C , viability (% of control) observed: 96.6

---

- Measurement protocol: Quantitative High-Throughput drug screen in 47 multiple myeloma cell lines against the NCATS MIPE library collection: U266_ATCC cell viability assay (AID 1919864); also: nearly all actives have a fitted effect of over 35% in size
- Condition parameters: U266 myeloma viability, CellTiter-Glo ATP luminescence, 48 h; series mostly up to 45.8 µM
Inconclusive results are not listed. Active and inactive are the calls of the source. The call rests on the fitted dose curve; in most records, active means well fitted cell-killing curve with a large enough effect; inconclusive means small, poorly fitted or top-dose-only effect, or effect the other way; inactive means no such curve, though single readings can be large or run the other way.
Bench note: report the call from 1 = active, -1 = inactive

Would you please look over these solved cases?
- Cc1c(CN2CCN(C(=O)C(C)C)CC2)sc2c(N3CCOCC3)nc(-c3cnc(N)nc3)nc12: 1
- Cc1c(CCOc2ccc(C(=O)O)cc2)c2cc(Cl)ccc2n1C(c1ccccc1)c1ccccc1: 1
- CN1CCN(CCCN2c3ccccc3Sc3ccc(C(F)(F)F)cc32)CC1: 1
- Cc1csc(NC(=O)c2sc3nc4c(c(C(F)(F)F)c3c2N)CCC4)n1: 1
- NNCCc1ccccc1: 1
- CCCS(=O)(=O)Nc1ccc(F)c(C(=O)c2c[nH]c3ncc(-c4ccc(Cl)cc4)cc23)c1F: 1
- O=c1[nH]c(-c2ccc(C(F)(F)F)cc2)nc2c1CSCC2: 1
- NC(=O)c1ccc(-c2nc(-c3ccc4c(c3)OCO4)c(-c3ccccn3)[nH]2)cc1: -1
- NC(N)=NC(=O)c1nc(Cl)c(N)nc1N: -1
- COCCNCCCn1c(C(=O)CF)c(-c2ccc(C)cc2)c2c(N)ncnc21: -1

# input Given CC(=O)Oc1ccccc1C(=O)O , state the outcome it received in this test.
# output 1
